Tested on: MDA-MB-231 breast
Experiment: NCI tumour cell line growth inhibition, 48 h
Documented TGI across a set of molecules
Observation type: TGI (µM)

1. CN1CCCC(C(=O)OCC(=O)C2(O)CCC3C4CCC5=CC(=O)CCC5(C)C4C(O)CC32C)C1 (stereo unspecified) : 19.2
2. Cc1cc(Cl)ccc1Nc1nc(C(F)(F)F)ccc1C(=O)Nc1cccc(C(F)(F)F)c1 : 8.15
3. CN(C)CC1=Nc2cccc3cccc(c23)N1 : 34.7
4. CC(=O)/C(=C(/Br)I)c1ccccc1 : 28.7

###

Tested on: OVCAR-8 ovarian
Assay: NCI tumour cell line growth inhibition, 48 h
Measured TGI, listed per entry for reference.
Observation type: TGI

1) COC1OC(C(C)O)C2OC(C)(C)OC12 (stereo not drawn) : > 100 µM
2) c1ccc(CSC(SCc2ccccc2)c2ccc3c(c2)OCO3)cc1 : > 10 µM
3) Cc1nc(Nc2nc3ccccc3[nH]2)[nH]c(=O)c1CCO : > 100 µM
4) NCCC1([N+](=O)[O-])CCNCC1 : > 100 µM
5) O=C(CC(=O)C1CCOC1=O)C(=O)Nc1ccc(Cl)cc1 (stereo not drawn) : > 100 µM
6) COC1C(OC(N)=O)C(O)C(Oc2ccc3c(O)c(NC(=O)c4ccc(O)c(CC=C(C)C)c4)c(=O)oc3c2C)OC1(C)C (stereo not drawn) : > 100 µM
7) CC1(C)CC2(C)ON=C(c3ccccc3)N2c2ccccc2N1 (stereo not drawn) : > 100 µM
8) O=C(O)CN=c1c2ccccc2n(O)c2ccccc12 : > 100 µM
9) O=C(CC(=O)c1ccccc1)C(=O)NC12CC3CC(CC(C3)C1)C2 : > 100 µM
10) COC(=O)[C@@H]1[C@H](O)CC[C@H]2[C@@]1(C)CC[C@@H](C)[C@]2(COC(C)=O)CC(=O)c1ccoc1 : > 50 µM
11) O=C1Cc2ccccc2CCc2ccsc21 : > 100 µM
12) COc1cc2c(Cc3cc(OCc4ccccc4)ccc3N)nccc2c(OC)c1OC : > 10 µM
13) O=C(Nc1ccc(S(=O)(=O)Nc2ncccn2)cc1)c1c2ccccc2nc2ccccc12 : > 100 µM
14) Oc1ccc(Cn2c(-c3ccc(O)cc3)nc3ccccc32)cc1 : > 100 µM
15) O=c1oc2c(ccc3c(O)cccc32)c2c1CCCC2 : > 100 µM
16) Oc1ccc(O)c2c1C1(Cl)C(Cl)=C(Cl)C2(Cl)C1(Cl)Cl : 36.6 µM
17) O=C1NN=C(c2ccc([N+](=O)[O-])cc2)C1n1nc(-c2ccccc2)c2ccccc2c1=O (stereo not drawn) : > 100 µM
18) COc1ccc(CN=C(N)N=C(N)N)cc1OC : > 1000 µM
19) CCOC(=O)/C=C1\Oc2ccccc2C1(C)O (stereo not drawn) : > 100 µM
20) CNc1ncc2cc(Oc3ccc(F)cc3F)c(=O)n(C)c2n1 : > 25 µM
21) COc1nc(OC)nc(Sc2ccc(Sc3ccc(Sc4nc(OC)nc(OC)n4)cc3)cc2)n1 : > 100 µM
22) CN(C)C(=O)Oc1ccc(C(=S)Nc2ccccc2)cc1Br : 39.4 µM
23) CCSC12CC3c4cccc5c4C(CN5C(=O)c4ccccc4)CC3(O1)N(C)C2=O (stereo not drawn) : > 100 µM
